# Tgt: human NEP (Homo sapiens (Human), UniProt P08473)
# Sequence (P08473 52-750): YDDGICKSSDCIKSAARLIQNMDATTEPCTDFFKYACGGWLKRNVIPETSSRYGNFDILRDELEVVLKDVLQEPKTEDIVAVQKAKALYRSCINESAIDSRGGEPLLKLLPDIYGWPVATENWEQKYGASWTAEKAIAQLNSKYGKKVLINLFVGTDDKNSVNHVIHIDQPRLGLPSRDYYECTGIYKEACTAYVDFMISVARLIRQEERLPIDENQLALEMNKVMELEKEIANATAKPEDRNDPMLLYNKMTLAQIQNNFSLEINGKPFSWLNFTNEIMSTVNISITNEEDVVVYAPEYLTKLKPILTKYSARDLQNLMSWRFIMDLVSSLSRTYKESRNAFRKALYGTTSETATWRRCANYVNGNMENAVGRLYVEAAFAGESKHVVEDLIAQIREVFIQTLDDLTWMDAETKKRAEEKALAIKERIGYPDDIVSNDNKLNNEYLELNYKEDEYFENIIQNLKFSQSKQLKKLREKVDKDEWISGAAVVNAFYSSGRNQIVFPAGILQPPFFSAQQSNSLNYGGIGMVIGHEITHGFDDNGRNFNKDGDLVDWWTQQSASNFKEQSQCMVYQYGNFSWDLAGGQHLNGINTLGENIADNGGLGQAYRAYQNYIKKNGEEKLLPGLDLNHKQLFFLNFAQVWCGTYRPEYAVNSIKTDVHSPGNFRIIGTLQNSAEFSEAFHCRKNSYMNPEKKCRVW
# Assay Summary: In vitro enzyme inhibition assay at human NEP (fluorogenic peptide substrate)
# Format: biochemical
Result Type: Ki

Field request: Ki | item: O=C(N[C@H](Cc1ccc(-c2cccc(Cl)c2)cc1)C[C@@H](O)C(=O)O)c1ccc2nnn(OCc3ccccc3)c2c1
12.6 to 100 nM

###

# Tgt: human NEP (Homo sapiens (Human), UniProt P08473)
# Assay Summary: In vitro enzyme inhibition assay at human NEP (fluorogenic peptide substrate)
# Assay type: biochemical
# Applied Conditions: recombinant human NEP; 30 minute pre-incubation at 37° C.; fluorogenic substrate 10 μM; read-out: pKi value at human NEP (converted)
Result Type: Ki

# get_value(readout= Ki, system= human NEP (Homo sapiens (Human), UniProt P08473)) for O=C(N[C@H](Cc1ccc(-c2cc(Cl)ccc2F)cc1)C[C@@H](O)C(=O)O)c1cn(O)nn1
≤ 1 nM

# get_value(readout= Ki, system= human NEP (Homo sapiens (Human), UniProt P08473)) for Cn1nc(C(=O)N[C@H](Cc2ccc(-c3cccc(Cl)c3)cc2)C[C@@H](O)C(=O)O)cc1O
≤ 1 nM

# get_value(readout= Ki, system= human NEP (Homo sapiens (Human), UniProt P08473)) for O=C(N[C@H](Cc1ccc(-c2cccc(Cl)c2)cc1)C[C@@H](O)C(=O)O)c1cc(O)n(-c2ccccn2)n1
≤ 1 nM

Every entry's value here was drawn from patent US10829438B2.
